concentration at 4 h overview
protocol notes: Pharmacokinetic Assay, single oral dose 5 mg/kg (Table 12)
Type: in vivo
condition summary: mouse; plasma concentration, C57 female mice, single oral dose 5 mg/kg, 4 h
measure name: concentration at 4 h (ng/mL)

- Cc1c(-c2nc3cc(CN(C)[C@@H]4CCC[C@H]4O)c(OC(F)F)cc3o2)cccc1-c1cccc(-c2nc3cc(CN4CCC[C@H]4C(=O)O)c(OC(F)F)cc3o2)c1C [Example 57]: 90
- Cc1c(-c2nc3cc(CN4CCC(F)C4)c(OC(F)F)cc3o2)cccc1-c1cccc(-c2nc3cc(CN4CCC[C@H]4C(=O)O)c(OC(F)F)cc3o2)c1C (stereo partly drawn) [Example 10]: 214
- Cc1c(COc2cc(OCc3cncc(OC(F)F)c3)c(CN3CCC(F)C3)cc2Cl)cccc1-c1cccc(-c2nc3cc(CN4CCC[C@H]4C(=O)O)c(OC(F)F)cc3o2)c1C (stereo partly drawn) [Example 209]: 19.2
